Reference source: patent US20190284262A1

biological target: T1, Foxp3-7 peptide/HLA-A*02:01 complex on the cell surface (human); experiment: flow cytometry, phage on T2 + Foxp3-7 peptide; secondary only 116, unstained 93.8
T1 construct: also called Foxp3-7/HLA-A2 complex
attribute measured: Median:FITC-A
The response must contain the number and no unit.

Incoming: Form field: reported Median:FITC-A of EXT017-11 scFv phage clone (scFv, also called phage clone #11) scFv: NFMLTQPHSVSESPGKTVTISCTRSSGSIASNYVQWYQQRPGSAPTTVIYEDNQRPSGVPDRFSGSIDSSSNSASLTISGLKTEDEADYYCQSYDTNNYGVIFGGGTKLTVLGSRGGGGSGGGGSGGGGSLEMAQMQLVQSGAEVKKPGASVKVSCKTSGYTFNNYYMHWVRQAPGQGLEWMGIINPSGGSTNYAQKFQGRVTMTRDTSTSTVYMELSSLRSEDTAVYYCARSFDKQDIDYWGQGTLVTVSSTSGQAGQHHHHHHGAYPYDVPDYAS
Outgoing: 454
